Molecular target: GST-LSD1 (Homo sapiens)
Answer each item with its documented IC50.

NNCCCN1CCOCC1 = > 100 µM
CN(C)NCCc1ccccc1 = > 100 µM

Could you now consider this next compound?
Please give the documented IC50 of CNNCCCc1ccc(OC)cc1
> 100 µM

----------
Target: GST-LSD1 (Homo sapiens, UniProt O60341)
Test: biochemical
Assay type: biochemical
Answer each item with its documented kinact.
One number for each entry, in s⁻¹.

Below are worked cases with known answers.
NNCCCCc1ccccc1 = 0.002
NNCCc1ccc(N(Cc2ccccc2)C(=O)CCCc2ccccc2)cc1 [12m] = 0.00367
COc1ccc(CCCNN)cc1.Cl.Cl = 0.0025

Each of the following entries comes with a recorded value; kindly state kinact for each.
1. NNCCc1ccc(NC(=O)CCc2c[nH]c3ccccc23)cc1 [15a]
2. NNCCc1ccc(NC(=O)CCCc2ccc(Cl)cc2)cc1 [12f]
3. NNCCOc1ccccc1 [10a]
4. NNCCc1ccc(NC(=O)Cc2ccccc2)cc1 [12b]
5. NNCCCOc1ccccc1 [10b]
6. NNCCc1ccc(NC(=O)CCc2ccccc2)cc1 [12c]

1. 0.0035
2. 0.00283
3. 0.0025
4. 0.00333
5. 0.00367
6. 0.004
